The measurements presented in this section are drawn from patent US8410107B2.

Biological target: human CB1 receptor (Homo sapiens)
Construct: expressed in transfected cells; host or cells: human embryonic kidney (HEK) cells, Semliki Forest Virus system, membrane preparations
Sequence (P21554 whole entry): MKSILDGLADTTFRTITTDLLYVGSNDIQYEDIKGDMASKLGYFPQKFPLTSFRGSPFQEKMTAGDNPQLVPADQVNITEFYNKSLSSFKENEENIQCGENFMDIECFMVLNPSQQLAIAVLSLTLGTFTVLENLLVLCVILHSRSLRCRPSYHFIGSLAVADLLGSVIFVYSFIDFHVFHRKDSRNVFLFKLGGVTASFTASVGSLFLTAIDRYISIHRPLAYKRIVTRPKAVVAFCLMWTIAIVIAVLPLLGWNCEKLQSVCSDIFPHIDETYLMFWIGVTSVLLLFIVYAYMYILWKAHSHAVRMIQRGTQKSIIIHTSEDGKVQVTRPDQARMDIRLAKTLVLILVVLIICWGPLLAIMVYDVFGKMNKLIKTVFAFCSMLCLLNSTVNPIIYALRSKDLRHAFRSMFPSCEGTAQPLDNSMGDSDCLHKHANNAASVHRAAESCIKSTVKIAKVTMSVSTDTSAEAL
Assay: CB1 receptor affinity ([3H]-CP-55,940 displacement, HEK cell membranes)
Type: binding
Conditions: displacement of radioligand [3H]-CP-55,940
Binary classification by inhibition at 10 µM, with 30% as an inclusive lower bound for true (1); all other cases are false (0).

Example entries begin here.
Cc1noc(C)c1C(=O)Nc1cnc(OCC(F)(F)F)c(-c2ccc(Cl)cc2)c1 true (1)
Cc1ncccc1C(=O)Nc1cnc(OCC(F)(F)F)c(-c2ccc(Cl)cc2)c1 true (1)
O=C(Nc1cnc(OCC(F)(F)F)c(-c2ccc(Cl)cc2)c1)c1ccno1 false (0)
O=C(Nc1cnc(OCC(F)(F)F)c(-c2ccc(Cl)cc2)n1)c1cccnc1 true (1)
CCc1ccc(-c2cc(NC(=O)c3cccnc3)cnc2OCC(F)(F)F)cc1 true (1)

Has Cc1cncc(C(=O)Nc2cnc(OC3CCC3)c(-c3ccc(Cl)cc3)c2)c1 a recorded inhibition at 10 µM greater than or equal to 30%?
false (0)

Entry Cc1cc(-c2cc(NC(=O)c3cncnc3)cnc2OCC(F)(F)F)ccc1Cl please
true (1)

Entry C[C@H](Oc1ncc(NC(=O)c2cccnn2)cc1-c1ccc(Cl)cc1)C(F)(F)F please
false (0)

Entry Cc1cc(C(=O)Nc2cnc(OCC(F)(F)F)c(-c3ccc(Cl)cc3)c2)no1 please
true (1)
